Assay: ATG_Ets_CIS: Attagene CIS-FACTORIAL HepG2 Assay for human Erythroblast Transformation Specific (ETS) (AID 2282941)
Settings: HepG2 ETS cis-reporter transcription, actives raise or lower the signal
Procedure: ATG_CIS is a cell-based, multiplexed-readout assay that uses HepG2, a human liver cell line, with measurements taken at 24 hours after chemical dosing in a 24-well plate.ATG_Ets_CIS is one of 52 assay component(s) measured or calculated from the ATG_CIS assay. […] This assay endpoint, ATG_Ets_CIS, was analyzed with bidirectional fitting relative to DMSO as the negative control and baseline of activity. […]
The source made the active and inactive calls. How the source made its calls: active means hit-call score of the fitted dose curve at least 0.9, where 1 is the maximum; inactive means score below 0.9.
API: response.call in active, inactive

[[record]]
compound = "CCCCCOC(C)=O"
category = "inactive"

[[record]]
compound = "CC(C)CC(C)O (centres undefined)"
category = "inactive"


So what was the verdict on "COS(C)(=O)=O" in this test?
inactive

So what was the verdict on "O=C(NO)C1(NS(=O)(=O)c2ccc(Oc3ccc(F)cc3)cc2)CCOCC1" in this test?
inactive

So what was the verdict on "O=C(N[C@H](CO)[C@H](O)c1ccc([N+](=O)[O-])cc1)C(Cl)Cl" in this test?
inactive

So what was the verdict on "CCCCOC(=O)c1ccccc1" in this test?
inactive

So what was the verdict on "CCn1nc(C)c2c1C(=O)NCC(c1ccc(O)cc1)=N2" in this test?
inactive

So what was the verdict on "NC(=O)N1c2ccccc2C=Cc2ccccc21" in this test?
inactive

So what was the verdict on "OCCNCCO" in this test?
inactive

So what was the verdict on "Cc1nccn1-c1ccc(Sc2cccc(C3(C(N)=O)CCOCC3)c2)cc1" in this test?
active

So what was the verdict on "O=c1[nH]cnc2c1ncn2[C@H]1CC[C@@H](CO)O1" in this test?
inactive

So what was the verdict on "C[C@]12C=CC(=O)C=C1CC[C@H]1[C@@H]3C[C@@H](O)[C@](O)(C(=O)CO)[C@@]3(C)C[C@H](O)[C@@]12F" in this test?
inactive
